System: Lolium rigidum
Assay: Post-emergence herbicidal action against LOLRI
Type: in vivo
Settings: 20 g/ha
attribute-measured: Post-emergence action against LOLRI in % (%)
Your answer is read as %, so omit the unit and give the number.

So for CN(C)C(=O)c1c(C(F)(F)F)ccc(C(=O)Nc2nnnn2C)c1Cl [Example 1-123] , the logged Post-emergence action against LOLRI in % turned out to be 80

So for Cn1nnnc1NC(=O)c1ccc(C(F)(F)F)c(C(=O)N2CCCC2)c1Cl [Example 1-152] , the logged Post-emergence action against LOLRI in % turned out to be 90

So for CCN(C)C(=O)c1c(C(F)(F)F)ccc(C(=O)Nc2nnnn2C)c1Cl [Example 1-124] , the logged Post-emergence action against LOLRI in % turned out to be 90

So for CCN(C)C(=O)c1c(C(F)(F)F)ccc(C(=O)Nc2nnnn2CC)c1Cl [Example 2-124] , the logged Post-emergence action against LOLRI in % turned out to be 90

---

Reported values of Pre-emergence action against DIGSA for individual entries
Tested on: Digitaria sanguinalis
Assay: Pre-emergence herbicidal action against DIGSA
Assay type: in vivo
Details: 20 g/ha
Your answer is read as %, so omit the unit and give the number.

Solved entries:
# compound, unit-tag, endpoint-value
records = [
    ("CN(CC(F)F)C(=O)c1c(C(F)(F)F)ccc(C(=O)Nc2nnnn2C)c1Cl [Example 1-128]", "%", 100),
    ("CCn1nnnc1NC(=O)c1ccc(C(F)(F)F)c(C(=O)N(C)C2CC2)c1C [Example 2-21]", "%", 100),
]

Now examine the next entry.
So for CCN(C(=O)c1c(C(F)(F)F)ccc(C(=O)Nc2nnnn2C)c1C)C1CC1 [Example 1-32] , the logged Pre-emergence action against DIGSA turned out to be 90

---

System: Hordeum murinum
Experiment: Post-emergence herbicidal action against HORMU
Assay type: in vivo
Details: 80 g/ha
attribute-measured: Post-emergence action against HORMU in %

Solved entries:
# molecule, Post-emergence action against HORMU in %
rows = [
    ("CN(CC1CC1)C(=O)c1c(C(F)(F)F)ccc(C(=O)Nc2nnnn2C)c1Cl [Example 1-126]", "100%"),
    ("CN(C)C(=O)c1c(C(F)(F)F)ccc(C(=O)Nc2nnnn2C)c1Cl [Example 1-123]", "100%"),
    ("CCn1nnnc1NC(=O)c1ccc(C(F)(F)F)c(C(=O)N(C)CC2CC2)c1Cl [Example 2-126]", "100%"),
    ("CCN(C)C(=O)c1c(C(F)(F)F)ccc(C(=O)Nc2nnnn2C)c1Cl [Example 1-124]", "100%"),
    ("CCCn1nnnc1NC(=O)c1ccc(C(F)(F)F)c(C(=O)N(C)CC)c1Cl [Example 3-124]", "80%"),
]

Observed Post-emergence action against HORMU in %, Hordeum murinum, CCCn1nnnc1NC(=O)c1ccc(C(F)(F)F)c(C(=O)N(C)C)c1Cl [Example 3-123] : 100%

Observed Post-emergence action against HORMU in %, Hordeum murinum, CCN(C)C(=O)c1c(C(F)(F)F)ccc(C(=O)Nc2nnnn2CC)c1Cl [Example 2-124] : 100%

Observed Post-emergence action against HORMU in %, Hordeum murinum, Cn1nnnc1NC(=O)c1ccc(C(F)(F)F)c(C(=O)n2cccn2)c1Cl [Example 1-153] : 90%

Observed Post-emergence action against HORMU in %, Hordeum murinum, CN(C(=O)c1c(Cl)ccc(C(=O)Nc2nnnn2C)c1Cl)c1ccccc1 [Example 1-398] : 80%

Observed Post-emergence action against HORMU in %, Hordeum murinum, CCn1nnnc1NC(=O)c1ccc(C(F)(F)F)c(C(=O)N(C)C)c1Cl [Example 2-123] : 100%

---

System: Alopecurus myosuroides
Assay: Post-emergence herbicidal action against ALOMY
Type: in vivo
Settings: 80 g/ha
attribute-measured: Post-emergence action against ALOMY (%)
Your answer is read as %, so omit the unit and give the number.

Solved entries:
# molecule, endpoint-value
data = [
    ("CCn1nnnc1NC(=O)c1ccc(C(F)(F)F)c(C(=O)N(C)C)c1Cl [Example 2-123]", 100),
    ("CCCn1nnnc1NC(=O)c1ccc(C(F)(F)F)c(C(=O)N2CCCC2)c1Cl [Example 3-152]", 80),
    ("CCN(C)C(=O)c1c(C(F)(F)F)ccc(C(=O)Nc2nnnn2C)c1Cl [Example 1-124]", 100),
]

Now examine the next entry.
So for CCn1nnnc1NC(=O)c1ccc(C(F)(F)F)c(C(=O)N2CCCC2)c1Cl [Example 2-152] , the logged Post-emergence action against ALOMY turned out to be 100

---

Tested on: Alopecurus myosuroides
Assay: Pre-emergence herbicidal action against ALOMY
Type: in vivo
Conditions: 320 g/ha; visual score after 3 weeks vs untreated controls
attribute-measured: Pre-emergence action against ALOMY (%)
Your answer is read as %, so omit the unit and give the number.

Observed Pre-emergence action against ALOMY, Alopecurus myosuroides, CCCn1nnnc1NC(=O)c1ccc(C(F)(F)F)c(C(=O)N(C)C)c1Cl : 90

Observed Pre-emergence action against ALOMY, Alopecurus myosuroides, CCn1nnnc1NC(=O)c1ccc(C(F)(F)F)c(C(=O)N(C)C)c1Cl : 100

Observed Pre-emergence action against ALOMY, Alopecurus myosuroides, CCn1nnnc1NC(=O)c1ccc(C(F)(F)F)c(C(=O)N(C)CC2CC2)c1Cl : 100

Observed Pre-emergence action against ALOMY, Alopecurus myosuroides, CCCn1nnnc1NC(=O)c1ccc(C(F)(F)F)c(C(=O)N(C)CC)c1Cl : 90

Observed Pre-emergence action against ALOMY, Alopecurus myosuroides, CCn1nnnc1NC(=O)c1ccc(C(F)(F)F)c(C(=O)n2cccn2)c1Cl : 90

Observed Pre-emergence action against ALOMY, Alopecurus myosuroides, CN(C(=O)c1c(Cl)ccc(C(=O)Nc2nnnn2C)c1Cl)c1ccccc1 : 100

Observed Pre-emergence action against ALOMY, Alopecurus myosuroides, CCn1nnnc1NC(=O)c1ccc(C(F)(F)F)c(C(=O)N2CCCC2)c1Cl : 100

Observed Pre-emergence action against ALOMY, Alopecurus myosuroides, CCN(C)C(=O)c1c(C(F)(F)F)ccc(C(=O)Nc2nnnn2C)c1Cl : 100

---

Reported values of Post-emergence action against VERPE in % for individual entries
Test system: Veronica persica
Test: Post-emergence herbicidal action against VERPE
Type: in vivo
Conditions: 20 g/ha, visual assessment about 3 weeks after treatment

So for CN(CC1CC1)C(=O)c1c(C(F)(F)F)ccc(C(=O)Nc2nnnn2C)c1Cl [Example 1-126] , the logged Post-emergence action against VERPE in % turned out to be 80%

So for Cc1c(C(=O)Nc2nnnn2C)ccc(C(F)(F)F)c1C(=O)N(C)C1CC1 [Example 1-21] , the logged Post-emergence action against VERPE in % turned out to be 80%

So for CCN(CC)C(=O)c1c(Br)ccc(C(=O)Nc2nnnn2CC)c1Cl [Example 2-200] , the logged Post-emergence action against VERPE in % turned out to be 90%

So for Cc1ccccc1N(C)C(=O)c1c(Cl)ccc(C(=O)Nc2nnnn2C)c1Cl [Example 1-399] , the logged Post-emergence action against VERPE in % turned out to be 80%

So for CCn1nnnc1NC(=O)c1ccc(C(F)(F)F)c(C(=O)N(C)C)c1C [Example 2-19] , the logged Post-emergence action against VERPE in % turned out to be 80%

---

System: Avena fatua
Experiment: Pre-emergence herbicidal action against AVEFA
Type: in vivo
Conditions: 320 g/ha; visual score after 3 weeks vs untreated controls
attribute-measured: Pre-emergence action against AVEFA
Express the reported value numerically, then name its unit.

# smiles-input, tgt, attribute-measured, endpoint-value
records = [
    ("CCCn1nnnc1NC(=O)c1ccc(C(F)(F)F)c(C(=O)N(C)CC)c1Cl", "Avena fatua", "Pre-emergence action against AVEFA", "100%"),
]

So for CCn1nnnc1NC(=O)c1ccc(C(F)(F)F)c(C(=O)N2CCCC2)c1Cl , the logged Pre-emergence action against AVEFA turned out to be 100%

So for Cc1ccccc1N(C)C(=O)c1c(Cl)ccc(C(=O)Nc2nnnn2C)c1Cl , the logged Pre-emergence action against AVEFA turned out to be 90%

So for CN(C(=O)c1c(Cl)ccc(C(=O)Nc2nnnn2C)c1Cl)c1ccccc1 , the logged Pre-emergence action against AVEFA turned out to be 90%

---

Tested on: Setaria viridis
Experiment: Post-emergence herbicidal action against SETVI
Assay type: in vivo
Details: 5 g/ha, visual assessment about 3 weeks after treatment
attribute-measured: Post-emergence action against SETVI in %

Solved entries:
# smiles-input, attribute-measured, endpoint-value
data = [
    ("CCCn1nnnc1NC(=O)c1ccc(C(F)(F)F)c(C(=O)N(C)CC)c1Cl", "Post-emergence action against SETVI in %", "90%"),
    ("Cn1nnnc1NC(=O)c1ccc(C(F)(F)F)c(C(=O)N2CCCC2)c1Cl", "Post-emergence action against SETVI in %", "100%"),
    ("CCN(C(=O)c1c(C(F)(F)F)ccc(C(=O)Nc2nnnn2C)c1C)C1CC1", "Post-emergence action against SETVI in %", "80%"),
    ("CCN(CC)C(=O)c1c(Br)ccc(C(=O)Nc2nnnn2CC)c1Cl", "Post-emergence action against SETVI in %", "100%"),
    ("CCn1nnnc1NC(=O)c1ccc(C(F)(F)F)c(C(=O)N(C)C)c1Cl", "Post-emergence action against SETVI in %", "100%"),
]

So for CCCn1nnnc1NC(=O)c1ccc(C(F)(F)F)c(C(=O)N(C)C)c1Cl , the logged Post-emergence action against SETVI in % turned out to be 100%

So for CCN(CC)C(=O)c1c(C(F)F)ccc(C(=O)Nc2nnnn2CC)c1C , the logged Post-emergence action against SETVI in % turned out to be 90%

So for CCN(CC)C(=O)c1c(C(F)F)ccc(C(=O)Nc2nnnn2C)c1Cl , the logged Post-emergence action against SETVI in % turned out to be 80%

So for CCN(C)C(=O)c1c(Br)ccc(C(=O)Nc2nnnn2CC)c1Cl , the logged Post-emergence action against SETVI in % turned out to be 100%

// data source = patent US12599136B2
